All values here come from patent US7488748B2.

Target: M2 muscarinic receptor (Rattus norvegicus, UniProt P10980)
Construct: from tissue; host or cells: rat heart membrane homogenate
Sequence (P10980 1-466): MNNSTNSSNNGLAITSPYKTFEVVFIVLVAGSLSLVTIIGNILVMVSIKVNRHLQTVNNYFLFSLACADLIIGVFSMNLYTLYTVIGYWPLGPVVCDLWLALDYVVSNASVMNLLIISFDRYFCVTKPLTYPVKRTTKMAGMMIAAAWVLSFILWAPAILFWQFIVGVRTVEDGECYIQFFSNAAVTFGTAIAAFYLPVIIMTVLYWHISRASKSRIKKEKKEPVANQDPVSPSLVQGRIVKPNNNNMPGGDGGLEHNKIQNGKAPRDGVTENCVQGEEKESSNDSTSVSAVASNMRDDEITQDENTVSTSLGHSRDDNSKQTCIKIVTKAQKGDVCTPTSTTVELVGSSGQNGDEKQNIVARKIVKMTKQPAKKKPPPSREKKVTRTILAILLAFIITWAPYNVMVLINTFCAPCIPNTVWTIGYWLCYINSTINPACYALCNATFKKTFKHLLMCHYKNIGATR
Experiment: Radioligand binding assay, [3H]-N-methylscopolamine, rat heart membranes
Details: [3H]NMS, Ki by Cheng & Prusoff, read-out: Receptor Binding Assay pKi M2 (converted)
# if measured Ki < 0.5 µM: Yes  # else: No

CC(C)=CCCN1CC2C(C1)C2N(C)C(=O)C(O)(c1ccccc1)C1CCCC1 (stereo not shown)    Yes
Cc1ccc(C(C)N2CC3C(C2)C3NC(=O)C(O)(c2ccccc2)C2CCCC2)cc1 (stereo not shown)    No
CC(c1ccccc1)N1CC2C(C1)C2NC(=O)C(O)(c1ccccc1)C1CCCCC1 (stereo not shown)    Yes

Please indicate whether the reported Ki of O=C(NC1C2CN(Cc3ccccc3)CC21)C(c1ccccc1)C1CCCCC1 (stereo not shown) is strictly below 0.5 µM. No

Also check O=C(NC1C2CN(Cc3cccs3)CC21)C(O)(c1ccccc1)C1CCCCC1 (stereo not shown) No

Repeat with COC(=O)c1ccc(CCN2CC3C(C2)C3NC(=O)C(O)(c2ccccc2)C2CCCC2)cc1 (stereo not shown) No

Same again, this time with O=C(NC1C2CN(Cc3ccccc3)CC21)C(O)c1ccccc1 (stereo not shown) No

And then Cc1ccc(CCN2CC3C(C2)C3NC(=O)C(O)(c2ccccc2)C2CCCC2)cc1C (stereo not shown) , what is it? No

How about this molecule: O=C(NC1C2CN(CCCc3ccccc3)CC21)C(O)(c1ccccc1)C1CCCC1 (stereo not shown) No

What about this molecule? O=C(NC1C2CN(Cc3cccs3)CC21)C(O)(c1ccccc1)C1CCCC1 (stereo not shown) No

Please do the same for O=C(NC1C2CN(Cc3ccccc3)CC21)C(Cl)(c1ccccc1)C1CCCCC1 (stereo not shown) as well. No

CC(c1ccccc1)N1CC2C(C1)C2NC(=O)C(O)(c1ccccc1)C1CCCC1 (stereo not shown) ? No
